Assay Target: Caspase-9 (UniProt P55211)
Sequence (P55211 whole entry): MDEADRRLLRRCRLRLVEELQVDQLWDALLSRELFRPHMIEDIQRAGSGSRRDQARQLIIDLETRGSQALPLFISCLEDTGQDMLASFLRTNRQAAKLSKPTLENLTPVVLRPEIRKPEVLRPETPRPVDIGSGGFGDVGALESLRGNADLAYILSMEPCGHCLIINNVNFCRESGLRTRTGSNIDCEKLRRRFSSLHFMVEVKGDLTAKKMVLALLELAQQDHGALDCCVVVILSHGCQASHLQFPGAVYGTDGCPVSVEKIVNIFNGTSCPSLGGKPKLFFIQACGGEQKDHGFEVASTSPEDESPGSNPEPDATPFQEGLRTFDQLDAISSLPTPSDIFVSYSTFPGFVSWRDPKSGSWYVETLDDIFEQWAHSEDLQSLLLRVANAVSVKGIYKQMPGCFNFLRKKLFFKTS
Assay Method Text: cell-based or functional assay
Numbered stars: 1 amine (or outer) side, 2 acyl side, 3 side chain; on linkers, the order of the positions; unused ones are H or OH. Square brackets hold non-standard residues; d marks the D form. * marks the point of attachment. CH═CH‑CON(CH2Ph)2 = O=C(/C=C/*)N(Cc1ccccc1)Cc1ccccc1; CH═CH‑CON(CH3)CH2CH2Ph = CN(CCc1ccccc1)C(=O)/C=C/*; AAsp = aza-Asp, O=C(N(CC(=O)[*:3])N[*:1])[*:2]; Cbz = O=C(OCc1ccccc1)*
Listed next: entries and their corresponding k2.
Your answer should be a plain number; it is taken to be in M⁻¹ s⁻¹.

Cbz-IET[AAsp]-{CH═CH‑CONHPh} [Cbz-Ile-Glu-Thr-AAsp-CH═CH-CONHPh] : 940

Reported k2 of Cbz-IET[AAsp]-{CH═CH‑CONHCH2Ph} [Cbz-Ile-Glu-Thr-AAsp-CH═CH-CONHCH2Ph] : 440

Reported k2 of Cbz-IET[AAsp]-{CH═CH‑CON(CH3)CH2CH2Ph} (SMILES CC[C@H](C)[C@H](NC(=O)OCc1ccccc1)C(=O)N[C@@H](CCC(=O)O)C(=O)N[C@H](C(=O)NN(CC(=O)O)C(=O)/C=C/C(=O)N(C)CCc1ccccc1)[C@@H](C)O) [Cbz-Ile-Glu-Thr-AAsp-CH═CH-CON(CH3)CH2CH2Ph] : 760

Reported k2 of Cbz-IET[AAsp]-{CH═CH‑CONHCH2CH2Ph} [Cbz-Ile-Glu-Thr-AAsp-CH═CH-CONHCH2CH2Ph] : 615

Reported k2 of Cbz-IET[AAsp]-{CH═CH‑CON(CH2Ph)2} (SMILES CC[C@H](C)[C@H](NC(=O)OCc1ccccc1)C(=O)N[C@@H](CCC(=O)O)C(=O)N[C@H](C(=O)NN(CC(=O)O)C(=O)/C=C/C(=O)N(Cc1ccccc1)Cc1ccccc1)[C@@H](C)O) [Cbz-Ile-Glu-Thr-AAsp-CH═CH-CON(CH2Ph)2] : 1930
